- Test system: MYO3A
- condition.notes: concentration: 1 μM,replicates: in singlicate; n = 1;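 also: KINOMEscan kinase panel screen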
Reported %Inh values for a set of compounds
Kindly provide the numeric value in % only, without the unit symbol.

// known answers, use as guide
CC(=O)Nc1ccc(-c2cc3ncnc(SCC(=O)O)c3s2)cc1    5
Cl.c1ccc(Oc2ccc(Nc3ccnc4cc(-c5ccc(CN6CCNCC6)o5)ccc34)cc2)nc1    7
Nc1nccc(-c2ccc3c(N)n[nH]c3c2)n1    8
COc1ccc(Nc2nccc(N3CCC(NC(=O)c4cccc(C#N)c4)C3)n2)cc1 (stereo not drawn)    0
CC(=O)Nc1nc2cnc(Nc3cc(NC(=O)c4cccc(CC(C)(C)C#N)c4)ccc3C)nc2s1    25

Q: I would be grateful if you could share the reported %Inh for "Cn1ccc2ncnc(Oc3ccc(NC(=O)Nc4cncc(C(F)(F)F)c4)c(Cl)c3)c21" .
A: 0

Q: # input compound: "Cn1ccc2ncnc(Oc3ccc(NC(=O)Nc4cc(C(C)(C)C)on4)c(Cl)c3)c21" ; wanted: its %Inh
A: 0

Q: GET /values?readout=%Inh&item= "CCCC(=O)Nc1n[nH]c2ncccc12"
A: 0

Q: Any idea what %Inh was measured for COC(=O)c1cccc(NC(=O)NC2CCN(c3ccnc(Nc4cc(OC)c(OC)c(OC)c4)n3)C2)c1 (stereo not drawn) ?
A: 43

Q: Entry COc1cccc(CNC(=O)NC2CCN(c3ccnc(Nc4cc(OC)c(OC)c(OC)c4)n3)C2)c1 (stereo not drawn) has what %Inh?
A: 27

Q: Which measured %Inh value corresponds to Cc1nnc(-c2ccc3occ(-c4ccc(S(C)=O)cc4)c3n2)o1 (stereo not drawn) ?
A: 0

Q: I am curious: what %Inh value has been reported for "Cc1ccc(Nc2ccnc(Nc3ccc4c(c3)CS(=O)(=O)C4)n2)cc1O.Cl" ?
A: 15

###

- System: PKAC-alpha
- Construct: gene PRKACA
- condition.notes: concentration: 1 μM,replicates: in singlicate; n = 1
quantity: %Inh
Be sure to follow the number with its unit.

Cn1ccc2ncnc(Oc3ccc(NC(=O)Nc4cc(C(C)(C)C)on4)c(Cl)c3)c21    0%

Q: What %Inh value was documented for this molecule, "COc1cc2ncn(-c3cc(OCC4CCCCC4)c(C(N)=O)s3)c2cc1OC" ?
A: 9%

Q: Fill in the blank: the reported %Inh of "CCN1CCN(CCCC(=O)Nc2n[nH]c3nc(-c4ccc(O)cc4)c(Br)cc23)CC1" is ____.
A: 0%

Q: What measured %Inh goes with "CC(C)S(=O)(=O)N1CCN(Cc2ccc3c(c2)nc(NC(=O)c2ccsc2)n3C[C@H](O)c2ccccc2)CC1" ?
A: 0%

Q: Report %Inh for "O=C(NCC1CC1)c1ccc(-c2cc(C(=O)NC3CC3)ccc2F)cc1" please.
A: 7%

Q: So what does the record say about %Inh for "Cc1cccc2c(-c3ccncc3)c(-c3ccc(F)cc3)nn12.Cl" ?
A: 0%

Q: Field request: %Inh | item: "NC(=O)Nc1sc(-c2ccc(F)cc2)cc1C(N)=O"
A: 0%

Q: Recorded %Inh of "Cn1ccc2ncnc(Oc3ccc(NC(=O)Nc4cnn(C(C)(C)C)c4)c(Cl)c3)c21" , please.
A: 0%

Q: Look up %Inh for this molecule: COc1ccc(Nc2nccc(N3CCC(NC(=O)c4cccc(C#N)c4)C3)n2)cc1 (stereo not shown)
A: 12%

Q: What does the record list as %Inh for "O=C(Nc1n[nH]c2cc(-c3ccco3)ccc12)C1CC1" ?
A: 0%

Q: What %Inh value was documented for this molecule, "NC(=O)c1ccc(-c2cc3ncnc(SCC(=O)O)c3s2)cc1" ?
A: 0%

Q: Requested read-out: %Inh. Entry: "OCCn1cc(-c2cnc3nnn(Cc4ccc5ncccc5c4)c3n2)cn1"
A: 0%

Q: Field request: %Inh | item: "Cl.c1ccc(Oc2ccc(Nc3ccnc4cc(-c5ccc(CN6CCNCC6)o5)ccc34)cc2)nc1"
A: 0%

###

Parameter %Inh: see the listing below.
- System: RIPK1
- condition.notes: concentration: 1 μM,replicates: in singlicate; n = 1
Field format: number, assumed %, no unit text.

Consider the reported %Inh for these compounds:
Cn1ccc2ncnc(Oc3ccc(NC(=O)Nc4cncc(C(F)(F)F)c4)c(Cl)c3)c21    0
Cl.Cl.NC[C@H](CC1CCCCC1)NC(=O)c1ccc(-c2ccnc3[nH]ccc23)s1    0
CSc1nccc(-c2c(-c3ccc(F)cc3)ncn2CCCN2CCOCC2)n1.Cl    0

Q: Field request: %Inh | item: "NC(=O)Nc1sc(-c2ccc(F)cc2)cc1C(N)=O"
A: 0

Q: Give the measured %Inh of "Nc1nccc(-c2ccc3c(N)n[nH]c3c2)n1" .
A: 3

Q: If you can, please state the reported %Inh value of "FC(F)(F)c1cc(Br)cc(Nc2nccc(-c3cnn4ncccc34)n2)c1" .
A: 4

Q: Look at this compound and give its reported %Inh. CS(=O)c1ccc(-c2coc3ccc(-c4n[nH]c(=O)o4)cc23)cc1 (centres unmarked)
A: 0

###

- System: IRAK3
- condition.notes: concentration: 1 μM,replicates: in singlicate; n = 1
quantity: %Inh (%)
Just the number in %, nothing appended.

Solved cases (2 shown):
Cn1ccc2ncnc(Oc3ccc(NC(=O)Nc4cncc(C(F)(F)F)c4)c(Cl)c3)c21    0
O=C(Nc1cccc(Oc2ccc3nccn3n2)c1)Nc1cccc(C(F)(F)F)c1    23

Q: Checklist item: %Inh tested on IRAK3, entry "CS(=O)(=O)c1cccc(CNc2nc(Nc3ccc4c(c3)[C@@H]3C[C@@H]4CNC3=O)ncc2C(F)(F)F)c1" , value?
A: 0

Q: Hello, I am looking for reported %Inh with IRAK3 for COC(=O)Nc1nc2cc(Oc3ccc(NC(=O)Nc4cc(C(F)(F)F)ccc4Cl)cc3)ccc2[nH]1.Cl [GW697465] . Could you help?
A: 0

Q: Hi! What's the reported %Inh for CCNCC(Cc1ccccc1)NC(=O)c1cc(Br)c(-c2ccnc3[nH]ccc23)s1.Cl.Cl (stereo not shown) [GSK1383280] on IRAK3?
A: 36

Q: Form field - read-out: %Inh; system: IRAK3; submitted item: COC(=O)c1cccc(NC(=O)NC2CCN(c3ccnc(Nc4cc(OC)c(OC)c(OC)c4)n3)C2)c1 (stereo not shown) [GSK1379767]
A: 79

Q: Observed %Inh on IRAK3 for "O=C(Nc1ccccc1)c1cccc(Oc2ccc3nccn3n2)c1" , please.
A: 3

Q: Can you look up %Inh on IRAK3 for "Cn1cc(-c2cccc3c(N)c(C(N)=O)nnc23)cn1" ?
A: 9

Q: I'm curious: which %Inh was measured for C[C@@H](Oc1cc(-n2cnc3cc(-c4cnn(C)c4)ccc32)sc1C(N)=O)c1ccccc1Cl [GSK580432] tested on IRAK3?
A: 34

Q: For the record "O=C(Nc1ccc(Oc2ccc3nc(NC(=O)C4CC4)cn3n2)c(F)c1)c1cccn(-c2ccccc2)c1=O" , what value of %Inh is listed for IRAK3?
A: 0

###

- Test system: JNK3
- Construct: gene MAPK10
- condition.notes: concentration: 1 μM,replicates: in singlicate; n = 1
quantity: %Inh (%)
Value expressed in %; do not type the unit.

Nc1nccc(-c2ccc3c(N)n[nH]c3c2)n1 [GSK1034945]    0
N#Cc1cccc(C(=O)NC2CCN(c3ccnc(Nc4ccc(F)cc4)n3)C2)c1 (centres unmarked) [GSK1379708]    17
CC(C)S(=O)(=O)N1CCN(Cc2ccc3c(c2)nc(NC(=O)c2ccsc2)n3C[C@H](O)c2ccccc2)CC1 [GW635815]    15
CN(c1ccc2c(c1)nc(NCc1ccc(F)cc1)n2C)c1ccnc(Nc2ccc(CS(C)(=O)=O)cc2)n1.Cl [GW813244]    0
CCn1c(-c2nonc2N)nc2cncc(Br)c21 [SB-738004]    2

Let's switch to this compound now.
Q: What value of %Inh has been recorded for this entry: CC(C)c1nc(-c2cccc(NS(=O)(=O)c3ccccc3)c2)c(-c2ccnc(Nc3ccc4c(c3)CN(C)CC4)n2)s1 [GSK1649598]
A: 94

###

- System: RIOK2
- condition.notes: concentration: 1 μM,replicates: in singlicate; n = 1
quantity: %Inh (%)
Give a bare numeral; the unit % is implied.

Cc1cccc(-c2nc(Nc3ccncc3)c3sccc3n2)n1    42
C[C@@H]1CCN(C(=O)N2CCCC2)C[C@@H]1N(C)c1ncnc2[nH]ccc12    0
Cc1nnc(-c2ccc3occ(-c4ccc(S(C)=O)cc4)c3n2)o1 (centres unmarked)    0
CC(C)S(=O)(=O)N1CCN(Cc2ccc3c(c2)nc(NC(=O)c2ccsc2)n3C[C@H](O)c2ccccc2)CC1    33

# context switch: different molecule, same %Inh
Q: Using the record for "Nc1nccc(-c2ccc3c(N)n[nH]c3c2)n1" , report its %Inh.
A: 52
